These entries and their values trace back to patent US12391682B2.

Molecular target: D. immitis Slo-1 (Dirofilaria immitis, UniProt I0DFK5)
Sequence (I0DFK5 1-1119): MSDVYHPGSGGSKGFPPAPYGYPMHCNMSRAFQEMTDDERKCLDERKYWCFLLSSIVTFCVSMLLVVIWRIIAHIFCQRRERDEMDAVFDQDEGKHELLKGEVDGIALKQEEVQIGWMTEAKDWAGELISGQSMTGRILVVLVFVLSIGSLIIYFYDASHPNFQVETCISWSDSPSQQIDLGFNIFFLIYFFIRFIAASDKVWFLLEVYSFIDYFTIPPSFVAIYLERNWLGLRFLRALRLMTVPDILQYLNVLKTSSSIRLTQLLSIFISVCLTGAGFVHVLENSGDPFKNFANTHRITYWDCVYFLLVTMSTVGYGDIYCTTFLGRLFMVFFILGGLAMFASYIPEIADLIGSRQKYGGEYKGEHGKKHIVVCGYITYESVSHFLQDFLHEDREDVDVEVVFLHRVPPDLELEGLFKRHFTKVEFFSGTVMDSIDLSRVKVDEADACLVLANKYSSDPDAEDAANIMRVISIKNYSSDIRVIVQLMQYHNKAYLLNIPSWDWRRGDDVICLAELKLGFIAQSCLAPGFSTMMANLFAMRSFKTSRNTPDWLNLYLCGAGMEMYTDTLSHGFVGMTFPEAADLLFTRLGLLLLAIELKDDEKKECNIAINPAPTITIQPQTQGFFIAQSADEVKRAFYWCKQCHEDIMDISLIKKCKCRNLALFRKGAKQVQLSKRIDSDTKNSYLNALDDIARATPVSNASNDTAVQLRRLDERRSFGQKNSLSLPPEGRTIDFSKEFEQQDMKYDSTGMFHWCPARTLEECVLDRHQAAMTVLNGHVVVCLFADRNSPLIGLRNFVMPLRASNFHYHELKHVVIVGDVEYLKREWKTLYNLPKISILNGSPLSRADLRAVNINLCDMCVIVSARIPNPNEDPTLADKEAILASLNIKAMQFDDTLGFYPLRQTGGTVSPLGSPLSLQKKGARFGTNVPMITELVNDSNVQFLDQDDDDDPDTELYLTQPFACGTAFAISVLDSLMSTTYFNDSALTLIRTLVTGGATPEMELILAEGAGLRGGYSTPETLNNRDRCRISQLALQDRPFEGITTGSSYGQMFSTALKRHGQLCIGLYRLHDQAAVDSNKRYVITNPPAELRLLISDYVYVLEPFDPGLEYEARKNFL
Test: In Vitro Assay 2: D. immitis Slo-1, membrane potential measurement in stable recombinant CHO cell line
pEC50: −log10 of the molar value.
READOUT_NAME: pEC50

See these solved cases before continuing.
In [3]: df
Out[3]:
                                   molecule  measured_result
0  O=C(N[C@H]1CCCc2ccccc21)c1ncc2c(-c3cc(Cl)cc(Cl)c3)cccc2c1N1CCOCC1 [Example I-8]     5.30 to 6.50
1  O=C(N[C@H]1CCOc2ccccc21)c1ncc2c(-c3cc(Cl)cc(Cl)c3)cccc2c1N1CCOCC1 [Example I-11]     5.30 to 6.50
2  CC(C)c1c(C(=O)N[C@H]2CCOc3ccccc32)ncc2c(-c3cc(Cl)cc(Cl)c3)cccc12 [Example I-4]     6.50 to 7.50
3  CC(C)c1c(C(=O)N[C@H]2CCOc3ccccc32)ncc2c(-c3cc(F)cc(F)c3F)cccc12 [Example I-3]     6.50 to 7.50
4  O=C(N[C@H]1CCOc2ccccc21)c1ncc2c(-c3cc(F)cc(F)c3F)cccc2c1N1CCOCC1 [Example I-1]     7.50 to 8.50

**Query** Please state recorded pEC50 (tested on D. immitis Slo-1 (Dirofilaria immitis, UniProt I0DFK5)) of CC(C)(C)c1cc(Cl)cc(-c2cccc3c(N4CCOCC4)c(C(=O)N[C@H]4CCOc5ccccc54)ncc23)c1 [Example I-12]
**Result** 5.30 to 6.50

**Query** Try Cc1c(C(=O)N[C@H]2CCOc3ccccc32)ncc2c(-c3cc(F)cc(F)c3F)cccc12 [Example I-2] next.
**Result** 5.30 to 6.50

**Query** And what about the molecule O=C(N[C@H]1CCCc2ccccc21)c1ncc2c(-c3cc(F)cc(F)c3F)cccc2c1N1CCOCC1 [Example I-9] ?
**Result** 6.50 to 7.50

**Query** Try this molecule too: O=C(NC1CCSc2ccc(F)cc21)c1ncc2c(-c3cc(F)cc(F)c3F)cccc2c1N1CCOCC1 (stereo not shown) [Example I-15]
**Result** 5.30 to 6.50

**Query** Next entry: Cc1c(C(=O)N[C@H]2CCc3ccccc32)ncc2c(-c3cc(F)cc(F)c3F)cccc12 [Example I-7]
**Result** 5.30 to 6.50

###

Reported EC50, C. elegans Slo-1a (Caenorhabditis elegans).

                                   compound  measured_result
0  Cc1c(C(=O)N[C@H]2CCOc3ccccc32)ncc2c(-c3cc(Cl)cc(Cl)c3)cccc12 [Example I-13]   31.6 to 316 nM

**Query** Suppose we examine the compound O=C(N[C@H]1CCCc2ccccc21)c1ncc2c(-c3cc(Cl)cc(Cl)c3)cccc2c1N1CCOCC1 [Example I-8] ; what EC50 value has been reported?
**Result** 3.16 to 31.6 nM
